Tested on: logarithmic phase C. albicans (MC295) containing HWP1-lacZ
testDescription: microbe, parasite or virus in culture
Type: cell-based
conditions: Candida albicans, read-out: C. albicans LOG IC50, logarithmic phase growth invasion assay (converted)
recordedMetric: log10(IC50) (log10 of the value in nM)
Recall that a logarithmic scale is used here: each number is log10 of IC50 in nM.

Answered examples (3):
INSERT INTO results (compound, recordedresult) VALUES
  ('Cc1cc(NC(=O)Nc2ccc(S(=O)(=O)Nc3cc(C)on3)cc2)no1', 3.71),
  ('Cc1cc(NS(=O)(=O)c2ccc(-c3ccco3)cc2)no1', 1.59),
  ('Cc1cc(NS(=O)(=O)c2ccc(CCCCCCCCCCO)cc2)no1', 4.24);

[in] Request the reported log10(IC50) associated with `Cc1cc(NS(=O)(=O)c2ccc(-c3ccc(F)c(C)c3)cc2)no1`
[out] 2.06

[in] Would you kindly share the measured log10(IC50) for `CCCCOc1ccc(S(=O)(=O)Nc2cc(C)on2)cc1` ?
[out] 1.62

[in] Param item = `Cc1cc(NS(=O)(=O)c2ccc(-c3nccs3)cc2)no1` ; retrieve measured log10(IC50).
[out] 3.45

[in] # get_value(readout='log10(IC50)', item= Cc1cc(NS(=O)(=O)c2ccc(CC3C4CCC(C4)C3(C)C)cc2)no1 (centres unmarked) )
[out] 4.26

[in] Using the record for `Cc1cc(NS(=O)(=O)c2ccc3ccccc3c2)no1` , report its log10(IC50).
[out] 3.35

[in] Quick check: log10(IC50) of `CCc1ccc(-c2ccc(S(=O)(=O)Nc3cc(C)on3)cc2)cc1` ?
[out] 2.06

[in] Reported log10(IC50), compound `Cc1cc(NS(=O)(=O)c2ccc(-c3cc4ccccc4o3)cc2)no1` : ____
[out] 2.51

[in] Find the recorded log10(IC50) belonging to `Cc1cc(NS(=O)(=O)c2ccc(-c3ccccc3)cc2)no1` and report it.
[out] 1.95

[in] Quick check: log10(IC50) of `CCCSCc1ccc(S(=O)(=O)Nc2cc(C)on2)cc1` ?
[out] 2.82

[in] Please give the measured log10(IC50) for this compound: `Cc1cc(NS(=O)(=O)c2ccc(-n3cccn3)cc2)no1`
[out] 3.32

[in] If you can, please state the reported log10(IC50) value of `Cc1cc(NS(=O)(=O)c2ccc(-c3ccc(F)cc3)cc2)no1` .
[out] 2.47
